Source of measurements: patent US20240294543A1

target: human GABAA α1β3γ2 receptor (Homo sapiens (Human), UniProt P14867+P18507)
experiment_notes: Radioligand binding assay, competition for [3H]Flumazenil, γ2-containing GABAA subtypes
stated_conditions: Log[Ki α1β3γ2 (nM)/Ki α2β2γ1 (nM)], Table 1
metric: LogSel

> print(dat)
                                   compound  metric  test.result
1  C[C@@H]1N=C(c2c(F)cccc2F)c2c(sc3c2CCCCC3)-n2c(C3CC3)nnc21 [Example 3]  LogSel         1.71
2  Cc1nnc2n1-c1sc3c(c1C(c1c(F)cccc1F)=N[C@H]2C)CCC[C@@H](F)C3 (single isomer, unassigned) [Example 16]  LogSel         1.20
3  Cc1nnc2n1-c1sc3c(c1C(c1c(F)cccc1F)=N[C@H]2C)CCC[C@H](F)C3 (single isomer, unassigned) [Example 17]  LogSel         2.13
4  C[C@@H]1N=C(c2c(F)cccc2F)c2c(sc3c2COCCO3)-n2nc(C(=O)NC[C@@](C)(O)C(F)(F)F)nc21 [Example 46]  LogSel         2.45
5  CCNC(=O)c1nc2n(n1)-c1sc3c(c1C(c1c(F)cccc1F)=N[C@H]2C)COCCO3 [Example 37]  LogSel         2.08
6  C[C@@H]1N=C(c2c(F)cccc2F)c2c(sc3c2COCCO3)-n2nc(C(=O)N3CC(OC(C)(C)C)C3)nc21 [Example 29]  LogSel         2.56
7  C[C@@H]1N=C(c2c(F)cccc2F)c2c(sc3c2COCCO3)-n2nc(C(=O)N3CC(F)C3)nc21 [Example 24]  LogSel         2.84

====

Recorded Ki, one value per entry.
target: human GABAA α1β3γ2 receptor (Homo sapiens (Human), UniProt P14867+P18507)
experiment_notes: Radioligand binding assay, competition for [3H]Flumazenil, γ2-containing GABAA subtypes
metric: Ki

> print(dat)
                                   molecule  metric  test.result
1  Cc1nnc2n1-c1sc3c(c1C(c1c(F)cccc1F)=NC2)CCOCC3      Ki      1.26 µM
2  Cc1nnc2n1-c1sc3c(c1C(c1c(F)cccc1F)=NC2)CCCCC3      Ki     0.374 µM
3  Cc1nnc2n1-c1sc3c(c1C(c1c(F)cccc1F)=N[C@H]2C)CCC[C@@H](F)C3 (single isomer, unassigned)      Ki      1.42 µM
4  Cc1nnc2n1-c1sc3c(c1C(c1c(F)cccc1F)=N[C@H]2C)CCCC(F)(F)C3      Ki      2.76 µM

====

The compounds listed here are annotated with their Efficacy (GABA) %.
target: h-GABA-A α2β2γ1 (Homo sapiens (Human), UniProt P47869+Q8N1C3)
experiment_notes: Two-electrode voltage clamp electrophysiology in Xenopus oocytes expressing GABAA receptors
Format: cell-based
stated_conditions: % modulation of GABA EC20 = 100*(Fold increase−1), compound at about 30-fold its Ki α2β2γ1
metric: Efficacy (GABA) % (%)

> print(dat)
                                   compound  measurement.units  test.result
1  C[C@@H]1N=C(c2c(F)cccc2F)c2c(sc3c2COCCO3)-n2cc(C(=O)NCC3(O)CC3)nc21 [Example 65]                  %          169
2  [2H]C1([2H])OCc2c(sc3c2C(c2c(F)cccc2F)=N[C@@H](C)c2nc(C(=O)N4CCC4)nn2-3)OC1([2H])[2H] [Example 23]                  %           63
3  C[C@@H]1N=C(c2c(F)cccc2F)c2c(sc3c2COCCC3)-n2cc(C(=O)NCCO)nc21 [Example 66]                  %          153
4  C[C@@H]1N=C(c2c(F)cccc2F)c2c(sc3c2COCCC3)-n2nc(C(=O)NC[C@@](C)(O)C(F)(F)F)nc21 [Example 70]                  %          148
5  Cc1nnc2n1-c1sc3c(c1C(c1c(F)cccc1F)=N[C@H]2C)CC[C@H](F)CC3 (single isomer, unassigned) [Example 14]                  %          181
6  CCOC1CN(C(=O)c2nc3n(n2)-c2sc4c(c2C(c2c(F)cccc2F)=N[C@H]3C)COCCO4)C1 [Example 31]                  %           69
7  Cc1nnc2n1-c1sc3c(c1C(c1c(F)cccc1F)=N[C@H]2C)CCCCC3O (mixture of isomers) [Example 9]                  %           96

====

target: human GABAA α1β3γ2 receptor (Homo sapiens (Human), UniProt P14867+P18507)
experiment_notes: Radioligand binding assay, competition for [3H]Flumazenil, γ2-containing GABAA subtypes
stated_conditions: Ki α1β3γ2 (nM)/Ki α2β2γ1 (nM), Table 1
Friendly reminder: γ2/γ1 Selectivity Ratio below 100 is Condition met, at or above is Condition not met.

> print(dat)
                                    compound  assigned.category
 1  C[C@@H]1N=C(c2c(F)cccc2F)c2c(sc3c2COCCO3)-n2nc(C(=O)NC3CC3)nc21      Condition met
 2  Cc1nnc2n1-c1sc3c(c1C(c1c(F)cccc1F)=N[C@H]2C)OCCCC3      Condition met
 3  Cc1nnc2n1-c1sc3c(c1C(c1c(F)cccc1F)=N[C@H]2C)CCC[C@@H](F)C3 (single isomer, unassigned)      Condition met
 4  C[C@@H]1N=C(c2c(F)cccc2F)c2c(sc3c2CCCCC3)-n2c(-c3cccnn3)nnc21      Condition met
 5  CCNC(=O)c1nc2n(n1)-c1sc3c(c1C(c1c(F)cccc1F)=N[C@H]2C)COCCO3  Condition not met
 6  Cc1nnc2n1-c1sc3c(c1C(c1c(F)cccc1F)=N[C@H]2C)COCC[C@H]3F  Condition not met
 7  C[C@@H]1N=C(c2c(F)cccc2F)c2c(sc3c2COCCC3)-n2nc(C(=O)NCC3(O)CC3)nc21  Condition not met
 8  Cc1nnc2n1-c1sc3c(c1C(c1c(F)cccc1Cl)=N[C@H]2C)COCCO3  Condition not met
 9  Cc1nnc2n1-c1sc3c(c1C(c1c(F)cccc1F)=N[C@H]2C)CCCC[C@H]3F (single isomer, unassigned)      Condition met
10  Cc1nnc2n1-c1sc3c(c1C(c1c(F)cccc1F)=N[C@H]2C)CCCCC3O (mixture of isomers)      Condition met
11  CCc1nnc2n1-c1sc3c(c1C(c1c(F)cccc1F)=N[C@H]2C)COCCO3  Condition not met
12  Cc1nc2n(n1)-c1sc3c(c1C(c1c(F)cccc1F)=N[C@H]2C)COCCO3  Condition not met
13  Cc1nnc2n1-c1sc3c(c1C(c1c(F)cccc1F)=N[C@H]2C)CCCCC3F (single isomer, unassigned)      Condition met
14  [2H]C1([2H])OCc2c(sc3c2C(c2c(F)cccc2F)=N[C@@H](C)c2nc(C(=O)N4CCC4)nn2-3)OC1([2H])[2H]  Condition not met
15  Cc1cn2c(n1)[C@H](C)N=C(c1c(F)cccc1F)c1c-2sc2c1COCCC2      Condition met

====

LogSel values for the compounds below.
target: human GABAA α1β3γ2 receptor (Homo sapiens (Human), UniProt P14867+P18507)
experiment_notes: Radioligand binding assay, competition for [3H]Flumazenil, γ2-containing GABAA subtypes
stated_conditions: Log[Ki α1β3γ2 (nM)/Ki α2β2γ1 (nM)], Table 1
metric: LogSel

> print(dat)
                                    compound  test.result
 1  Cc1nnc2n1-c1sc3c(c1C(c1c(F)cccc1F)=N[C@H]2C)CCC(F)C(F)C3 (single isomer, unassigned)         2.53
 2  Cc1nnc2n1-c1sc3c(c1C(c1c(F)cccc1F)=N[C@H]2C)COCCO3         1.83
 3  Cc1nnc2n1-c1sc3c(c1C(c1c(F)cccc1F)=NC2)CCOCC3         1.30
 4  Cc1nnc2n1-c1sc3c(c1C(c1c(F)cccc1F)=N[C@H]2C)CCCCC3F (single isomer, unassigned)         1.80
 5  C[C@@H]1N=C(c2c(F)cccc2F)c2c(sc3c2COCCO3)-n2nc(C(=O)N3CCC3)nc21         2.48
 6  C[C@@H]1N=C(c2c(F)cccc2F)c2c(sc3c2COCCC3)-n2cc(C(=O)NCC3(O)CC3)nc21         2.27
 7  C[C@@H]1N=C(c2c(F)cccc2F)c2c(sc3c2COCCO3)-n2nc(C(=O)NCC3(O)CC3)nc21         2.20
 8  Cc1nnc2n1-c1sc3c(c1C(c1c(F)cccc1F)=NC2)CCCCO3         1.31
 9  C[C@@H]1N=C(c2c(F)cccc2F)c2c(sc3c2COCCO3)-n2cc(C(=O)NCC3(O)CC3)nc21         1.73
10  C[C@@H]1N=C(c2c(F)cccc2F)c2c(sc3c2CCCCC3)-n2c(-c3cccnn3)nnc21         1.98
11  C[C@@H]1N=C(c2c(F)cccc2F)c2c(sc3c2COCCC3)-n2nc(C(=O)NC[C@](C)(O)C(F)(F)F)nc21         1.78
12  C[C@@H]1N=C(c2c(F)cccc2F)c2c(sc3c2COCCC3)-n2cc(C(=O)NCCO)nc21         2.23
13  Cc1nc2n(n1)-c1sc3c(c1C(c1c(F)cccc1F)=N[C@H]2C)COCCO3         2.55
14  [2H]C1([2H])OCc2c(sc3c2C(c2c(F)cccc2F)=N[C@@H](C)c2nc(C(=O)N4CC(OCC)C4)nn2-3)OC1([2H])[2H]         2.87
15  Cc1nnc2n1-c1sc3c(c1C(c1c(F)cccc1F)=N[C@H]2C)COC[C@H](C)O3         1.70
16  Cc1nnc2n1-c1sc3c(c1C(c1c(F)cccc1F)=N[C@H]2C)CCCCO3         1.56
17  C[C@@H]1N=C(c2c(F)cccc2F)c2c(sc3c2CCCCC3)-n2ccc(=O)nc21         2.31
18  C[C@@H]1N=C(c2c(F)cccc2F)c2c(sc3c2COCCO3)-n2nc(C(=O)NC[C@](C)(O)C(F)(F)F)nc21         2.24
19  Cc1nnc2n1-c1sc3c(c1C(c1c(F)cccc1Cl)=N[C@H]2C)COCCC3         2.09
20  C[C@@H]1N=C(c2c(F)cccc2F)c2c(sc3c2COCCC3)-n2nc(C(=O)NC[C@@](C)(O)C(F)(F)F)nc21         1.85
21  Cc1nnc2n1-c1sc3c(c1C(c1c(F)cccc1F)=N[C@H]2C)CCCC[C@@H]3F (single isomer, unassigned)         1.48
22  C[C@@H]1N=C(c2c(F)cccc2F)c2c(sc3c2COCCO3)-n2nc(C(=O)NCC(C)(C)O)nc21         2.37
23  Cc1nnc2n1-c1sc3c(c1C(c1c(F)cccc1F)=N[C@H]2C)CCCC[C@H]3F (single isomer, unassigned)         1.67
24  C[C@@H]1N=C(c2c(F)cccc2F)c2c(sc3c2COC[C@H](C)O3)-n2nc(C(=O)N3CC(OC(C)(C)C)C3)nc21         2.27
25  Cc1nnc2n1-c1sc3c(c1C(c1c(F)cccc1F)=N[C@H]2C)CC[C@@H](F)CO3         2.46
26  Cc1nc2n(n1)-c1sc3c(c1C(c1c(F)cccc1F)=N[C@H]2C)COCCC3         2.79
27  Cc1nnc2n1-c1sc3c(c1C(c1c(F)cccc1F)=N[C@H]2C)COCC[C@@H]3F (single isomer, unassigned)         1.75
28  C[C@@H]1N=C(c2c(F)cccc2F)c2c(sc3c2CCCCC3)-n2c1n[nH]c2=O         1.82
29  Cc1nnc2n1-c1sc3c(c1C(c1c(F)cccc1F)=N[C@H]2C)OCCCC3         1.82
30  C[C@@H]1N=C(c2c(F)cccc2F)c2c(sc3c2COCCC3)-n2nc(C(=O)NCC(C)(C)O)nc21         1.69
